Target: GSK3β (Homo sapiens, UniProt P49841)
Sequence (P49841 whole entry, species assumed): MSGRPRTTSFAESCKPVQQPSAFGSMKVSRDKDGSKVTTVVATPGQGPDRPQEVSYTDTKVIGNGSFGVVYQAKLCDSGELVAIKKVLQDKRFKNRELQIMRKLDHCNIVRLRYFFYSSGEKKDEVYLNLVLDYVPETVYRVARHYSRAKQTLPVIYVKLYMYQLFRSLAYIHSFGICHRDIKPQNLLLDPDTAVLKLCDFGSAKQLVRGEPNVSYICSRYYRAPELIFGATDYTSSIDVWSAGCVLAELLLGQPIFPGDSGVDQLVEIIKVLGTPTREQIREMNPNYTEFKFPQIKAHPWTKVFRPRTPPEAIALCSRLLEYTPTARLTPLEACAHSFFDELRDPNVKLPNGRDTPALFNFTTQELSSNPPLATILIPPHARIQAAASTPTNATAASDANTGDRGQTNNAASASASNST
Experiment: GSK3β ATP depletion assay
Type: biochemical
Conditions: ATP depletion assay; read-out: GSK3b IC50
Known pIC50 of a selection of compounds
Remember the convention: pIC50 equals -log10 of concentration in molar.

Below are worked cases with known answers.
compound | pIC50
C[C@H]1O[C@@H](c2ccncc2NC(=O)c2csc(-c3c(F)cccc3F)n2)C[C@@H](N)[C@]1(C)O [Example 221] | 7.13
Cc1cc(F)c(-c2nc(C(=O)Nc3cnccc3[C@@H]3C[C@@H](N)CC(C)(C)O3)ccc2F)c(F)c1 [Example 313] | 6.89
COc1cc(F)c(-c2nc(C(=O)Nc3cnccc3[C@H]3C[C@@H](N)[C@](C)(O)[C@@H](C)O3)ccc2F)c(F)c1 [Example 242] | 6.33
Cc1cc(F)c(-c2nc(C(=O)Nc3cnccc3[C@H]3C[C@@H](N)[C@H](O)[C@@H](C4CC4)O3)ccc2F)c(F)c1 [Example 322] | 5.28
COc1ccc(F)c(-c2nc(C(=O)Nc3cnccc3[C@H]3C[C@@H](N)[C@](C)(O)[C@@H](C)O3)ccc2F)c1F [Example 244] | 6.09
C[C@@]1(O)[C@@H](N)C[C@@H](c2ccncc2NC(=O)c2ccc(F)c(-c3c(F)cccc3F)n2)OC12CC2 [Example 266] | 5.22
CC[C@H]1O[C@@H](c2ccncc2NC(=O)c2nc(-c3ccccc3)cnc2N)C[C@@H](N)[C@]1(C)O [Example 348] | 6.92
C[C@]1(O)[C@@H](N)C[C@H](c2ccncc2NC(=O)c2ccc(F)c(-c3c(F)cccc3F)n2)OC12CC2 [Example 287] | 5.82
CC(C)[C@H]1OC(c2ccncc2NC(=O)c2ccc(F)c(-c3c(F)cc(OCCO)cc3F)n2)C[C@@H](N)[C@@H]1O (stereo in doubt) [Example 319] | 5.80
CC(C)(C)[C@H]1O[C@@H](c2ccncc2NC(=O)c2csc(-c3c(F)cccc3F)n2)C[C@@H](N)[C@@H]1O [Example 268] | 6.68

Prompt: Value wanted: pIC50 (GSK3β (Homo sapiens, UniProt P49841)) of entry C[C@H]1O[C@@H](c2ccncc2NC(=O)c2ccc(F)c(-c3ccc(S(C)(=O)=O)cc3)n2)C[C@@H](N)[C@]1(C)O [Example 321]
Completion: 5.73

Prompt: Param readout = pIC50; param system = GSK3β (Homo sapiens, UniProt P49841); param query = C[C@]1(O)[C@H](N)C[C@H](c2ccncc2NC(=O)c2ccc(F)c(-c3c(F)cccc3F)n2)OC12CC2 [Example 289] ; response: value
Completion: 5.16

---

Entries annotated with measured IC50
Biological target: UniProt Q9P1W9
Test: KinaseGlo Pim2 ATP depletion assay
Type: biochemical
The reply should be a number in nM, with the unit left off.

Prompt: I'd like to know its IC50. The molecule in question is N#CC[C@H]1O[C@@H](c2ccncc2NC(=O)c2nc(-c3c(F)cccc3F)ncc2N)C[C@@H](O)[C@@H]1O [Example 153]
Completion: 26.7

Prompt: Item under review: O=C(Nc1cnccc1[C@H]1C[C@@H](O)[C@H](O)[C@@H](CO)O1)c1csc(-c2c(F)cccc2F)n1 . Reported IC50?
Completion: 4920

Prompt: Record request: IC50 value, item Nc1cnc(-c2c(F)cccc2F)nc1C(=O)Nc1cnccc1[C@H]1C[C@@H](O)[C@H](O)[C@@H](CCl)O1
Completion: 3

Prompt: Please give the measured IC50 for this molecule: C=C1[C@@H](O)C[C@@H](c2ccncc2NC(=O)c2ccc(F)c(-c3c(F)cccc3F)n2)OC12CC2
Completion: 151

Prompt: Can you look up the measured IC50 of C[C@H]1O[C@@H](c2ccncc2NC(=O)c2nc(-c3c(F)cccc3F)c(F)cc2N)C[C@@H](O)[C@]1(C)O for me?
Completion: 2

Prompt: Which IC50 is reported for this molecule? CC[C@H]1O[C@@H](c2ccncc2NC(=O)c2nc(-c3nccs3)ccc2N)C[C@@H](O)[C@@H]1O [Example 145]
Completion: 57.5

Prompt: Looking for the measured IC50 of O=C(Nc1cnccc1[C@H]1C[C@@H](O)CCO1)c1csc(-c2c(F)cccc2F)n1 , can you help?
Completion: 1110

---

Target: PIM2 (Homo sapiens, UniProt Q9P1W9)
Sequence (Q9P1W9 whole entry): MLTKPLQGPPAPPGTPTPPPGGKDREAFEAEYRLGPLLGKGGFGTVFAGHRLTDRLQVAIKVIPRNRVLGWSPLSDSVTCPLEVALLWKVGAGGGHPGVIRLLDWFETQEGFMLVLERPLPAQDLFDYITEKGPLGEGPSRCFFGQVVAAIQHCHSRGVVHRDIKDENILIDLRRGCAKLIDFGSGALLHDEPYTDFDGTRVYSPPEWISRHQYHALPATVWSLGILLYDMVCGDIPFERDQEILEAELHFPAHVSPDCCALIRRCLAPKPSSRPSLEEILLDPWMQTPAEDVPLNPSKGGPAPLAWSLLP
Experiment: Pim 2 AlphaScreen assay (high ATP)
Format: biochemical
Details: read-out: Pim2 IC50
pIC50: −log10 of the molar value.
Outcome: True for pIC50 of at least 6; False for anything lower.

molecule | target_or_system | group_label
CC(C)[C@H]1O[C@@H](c2ccncc2NC(=O)c2ccc(F)c(-c3ccccc3)n2)C[C@@H](N)[C@@H]1O [Example 309] | PIM2 (Homo sapiens, UniProt Q9P1W9) | True
CC(C)[C@H]1O[C@@H](c2ccncc2NC(=O)c2ccc(F)c(-c3cccc(S(C)(=O)=O)c3)n2)C[C@@H](N)[C@@H]1O [Example 312] | PIM2 (Homo sapiens, UniProt Q9P1W9) | False
Cc1cc(F)c(-c2nc(C(=O)Nc3cnccc3[C@@H]3C[C@H](N)[C@@H](O)[C@H](C4CC4)O3)ccc2F)c(F)c1 [Example 324] | PIM2 (Homo sapiens, UniProt Q9P1W9) | True
C[C@@]1(O)[C@@H](N)C[C@@H](c2ccncc2NC(=O)c2nc(-c3ccccc3)cnc2N)O[C@H]1C1CC1 [Example 347] | PIM2 (Homo sapiens, UniProt Q9P1W9) | False
CC(C)(C)[C@H]1O[C@@H](c2ccncc2NC(=O)c2ccnc(-c3c(F)cccc3F)n2)C[C@@H](N)[C@@H]1O [Example 277] | PIM2 (Homo sapiens, UniProt Q9P1W9) | True
COc1cc(F)c(-c2nc(C(=O)Nc3cnccc3[C@H]3C[C@@H](N)[C@](C)(O)[C@@H](C)O3)ccc2F)c(F)c1 [Example 242] | PIM2 (Homo sapiens, UniProt Q9P1W9) | True

Prompt: Test whether the molecule CC(C)[C@H]1O[C@@H](c2ccncc2NC(=O)c2ccnc(-n3ccc(=O)cc3)n2)C[C@@H](N)[C@@H]1O [Example 304] records pIC50 of 6 or higher.
Completion: False

Prompt: State whether the measured pIC50 reaches 6, counting equality as reaching it, for CSc1ccc(F)c(-c2nc(C(=O)Nc3cnccc3[C@H]3C[C@@H](N)[C@](C)(O)[C@@H](C)O3)ccc2F)c1F [Example 327]
Completion: True

Prompt: Is pIC50 at least 6? Consider C[C@@]1(O)[C@@H](O)C[C@@H](c2ccncc2NC(=O)c2nc(-c3c(F)cccc3F)ncc2N)O[C@H]1C1CC1 [Example 249]
Completion: False

Prompt: Hi, just wondering whether C[C@@]1(O)[C@@H](O)C[C@@H](c2ccncc2NC(=O)c2ccc(F)c(-c3c(F)cccc3F)n2)O[C@H]1C1CC1 [Example 248] shows pIC50 of 6 or higher.
Completion: False

Prompt: Exam item: decide whether the reported pIC50 for CC(C)[C@@H]1C[C@H](N)C[C@H](c2ccncc2NC(=O)c2ccc(F)c(-c3c(F)cccc3F)n2)O1 [Example 300] is at least 6.
Completion: True

Prompt: Assess whether reported pIC50 for CC1(C)C[C@H](N)C[C@@H](c2ccncc2NC(=O)c2ccc(F)c(-c3c(F)cccc3F)n2)O1 [Example 299] sits at 6 or higher.
Completion: True

---

System: KMS11 (human myeloma cell line)
Test: Cell proliferation assay (CellTiter-Glo), KMS11
Assay type: cell-based
Conditions: Homo sapiens, KMS-11; KMS11 cells, cell proliferation; read-out: KMS11-Luc EC50
Measured pEC50 values are reported for all entries that follow.
Lab note: report pEC50 as minus log10 of the concentration in molar units, number only.

compound | pEC50
CC(=O)Nc1cc(F)c(-c2nc(C(=O)Nc3cnccc3[C@H]3C[C@@H](N)[C@](C)(O)[C@@H](C)O3)ccc2F)c(F)c1 | 6.03
Nc1ncc(-c2ccccc2)nc1C(=O)Nc1cnccc1[C@@H]1C[C@H](N)[C@@H]2CCC[C@@H]2O1 | 7.00
CSc1ccc(F)c(-c2nc(C(=O)Nc3cnccc3[C@H]3C[C@@H](N)[C@](C)(O)[C@@H](C)O3)ccc2F)c1F | 6.51
CC[C@@H]1O[C@H](c2ccncc2NC(=O)c2ccc(F)c(-c3c(F)cccc3F)n2)C[C@H](N)[C@H]1O | 5.38
C[C@H]1O[C@@H](c2ccncc2NC(=O)c2csc(-c3c(F)cccc3F)n2)C[C@@H](N)[C@]1(C)O | 5.11

Prompt: Which pEC50 is reported for this compound? COc1cc(F)c(-c2nc(C(=O)Nc3cnccc3[C@H]3C[C@@H](N)[C@H](O)[C@@H](C4CC4)O3)ccc2F)c(F)c1
Completion: 6.72

Prompt: So what's the measured pEC50 for this one? CNC(=O)c1cc(F)c(-c2nc(C(=O)Nc3cnccc3[C@H]3C[C@@H](N)[C@](C)(O)[C@@H](C)O3)ccc2F)c(F)c1
Completion: 5.42

Prompt: # get_value(readout='pEC50', item= N[C@H]1C[C@@H](c2ccncc2NC(=O)c2ccc(F)c(-c3c(F)cccc3F)n2)O[C@H]2CCC[C@H]21 )
Completion: 5.36

Prompt: GET /values?readout=pEC50&item= CC[C@@H]1O[C@H](c2ccncc2NC(=O)c2nc(-c3ccccc3)cnc2N)C[C@H](N)[C@H]1O
Completion: 6.11

Prompt: Look at this compound and give its reported pEC50. COc1cc(F)c(-c2nc(C(=O)Nc3cnccc3[C@@H]3C[C@H](N)[C@@H](O)[C@H](C4CC4)O3)ccc2F)c(F)c1
Completion: 5.26

Prompt: Given Nc1ncc(-c2ccccc2)nc1C(=O)Nc1cnccc1[C@@H]1C[C@H](N)[C@]2(O)CCC[C@@H]2O1 , state its recorded pEC50.
Completion: 5.03

Prompt: Look at this compound and give its reported pEC50. N[C@@H]1C[C@H](c2ccncc2NC(=O)c2ccc(F)c(-c3c(F)cccc3F)n2)O[C@@H]2CCC[C@H]12
Completion: 6.19
